Just for reference, ChEMBL document CHEMBL4004822 is where these values come from.

target: NAD-dependent protein deacetylase sirtuin-2 (Homo sapiens); assay: Inhibition of recombinant human C-terminal His-tagged SIRT2 (50 to 389 end residues) expressed in Escherichia coli using p53 derived (379 to 382 residues) fluorogenic peptide substrate RHKK(Ac)-AMC preincubated for 10 mins followed by substrate addition in presence of NAD+ by fluorescence assay
Can you tell me log10(IC50) for the items I'm about to list?
Log scale reminder: IC50 in µM, then log10 taken.

Would you please look over these solved cases?
Prompt: Note log10(IC50) for the compound shown: O=c1c2c3c(sc2ncn1Cc1cccc2cccnc12)CC(Nc1ccc(F)cc1)CC3 (stereo not given)
Completion: -0.01

Prompt: Check the records and state log10(IC50) for O=c1c2c3c(sc2ncn1Cc1cccc2cccnc12)CC(NCc1ccc(Cl)cc1)CC3 (stereo not given)
Completion: 0.10

Prompt: Respond only with log10(IC50) recorded for COc1ccc2ccccc2c1Cn1cnc2sc3c(c2c1=O)CCC(NCc1cccs1)C3 (stereo not given)
Completion: 0.78

Prompt: Given O=c1c2c3c(sc2ncn1Cc1ccc2ccccc2c1)CC(NCC1CCCO1)CC3 (stereo not given) , respond with its log10(IC50).
Completion: 1.12

Please supply log10(IC50) for each of the following items, keeping them in order.
1. Cc1nn(C)c(C)c1CNC1CCc2c(sc3ncn(Cc4cccc5ccccc45)c(=O)c23)C1 (stereo not given)
2. O=c1c2c3c(sc2ncn1Cc1cccc2cccnc12)CC(NCc1cccc(F)c1)CC3 (stereo not given)

Completion:
1: 0.62; 2: 0.24

* * *

biological target: NAD-dependent protein deacetylase sirtuin-2 (Homo sapiens) (UniProt Q8IXJ6); assay: Inhibition of recombinant human C-terminal His-tagged SIRT2 (50 to 389 end residues) expressed in Escherichia coli at 10 uM using p53 derived (379 to 382 residues) fluorogenic peptide substrate RHKK(Ac)-AMC preincubated for 10 mins followed by substrate addition in presence of NAD+ by fluorescence assay relative to control
Record form. Attribute: inhibition. Fill in for each entry.
One number for each entry, in %.

Some molecules with known inhibition results, for comparison:
Prompt: Report measured inhibition; entry is O=c1c2c3c(sc2ncn1Cc1cccc2cccnc12)CC(NCc1ccccn1)CC3 (stereo not given)
Completion: 87

Prompt: Give the measured inhibition for O=c1c2c3c(sc2ncn1Cc1cccc2ccccc12)CC(NCc1cccnc1)CC3 (stereo not given)
Completion: 89

Prompt: Consider the molecule COc1ccc(Cn2cnc3sc4c(c3c2=O)CCC(NCc2ccccc2F)C4)c2ccccc12 (stereo not given) . State its measured inhibition.
Completion: 71

Answer for every listed entry: what is its inhibition? The entries follow.
1. O=c1c2c3c(sc2ncn1Cc1cccc(-c2ccccc2)c1)CC(NCc1cccs1)CC3 (stereo not given)
2. COc1ccc2ccccc2c1Cn1cnc2sc3c(c2c1=O)CCC(NC1CCOCC1)C3 (stereo not given)
3. COc1ccc(Cn2cnc3sc4c(c3c2=O)CCC(NCc2cccc(F)c2)C4)c2ccccc12 (stereo not given)
4. COc1ccc2ccccc2c1Cn1cnc2sc(CCNCc3ccc(C#N)cc3)c(C)c2c1=O
5. Cc1ccc(NC2CCc3c(sc4ncn(Cc5cccc(-c6ccccc6)c5)c(=O)c34)C2)cc1 (stereo not given)

Completion:
1. 66
2. 96
3. 59
4. 51
5. 27

* * *

Could you please report measured inhibition for the items listed next?
target: NAD-dependent protein deacetylase sirtuin-2 (Homo sapiens) (UniProt Q8IXJ6); experiment: Inhibition of recombinant human C-terminal His-tagged SIRT2 (50 to 389 end residues) expressed in Escherichia coli at 10 uM using p53 derived (379 to 382 residues) fluorogenic peptide substrate RHKK(Ac)-AMC preincubated for 10 mins followed by substrate addition in presence of NAD+ by fluorescence assay relative to control
One number for each entry, in %.

Prompt: Return inhibition (reported value) for this compound: O=c1c2c3c(sc2ncn1Cc1cccc2cccnc12)CC(NCc1cccnc1)CC3 (stereo not given)
Completion: 91

Prompt: Given COc1ccc2ccccc2c1Cn1cnc2sc3c(c2c1=O)CCC(NCC1CCOC1)C3 (stereo not given) , respond with its inhibition.
Completion: 85

Prompt: Consider the compound O=c1c2c3c(sc2ncn1Cc1ccccc1)CC(NCC1CCCO1)CC3 (stereo not given) . State its measured inhibition.
Completion: 22

Prompt: Could you please provide reported inhibition for COc1ccc(CNC2CCc3c(sc4ncn(Cc5cccc6cccnc56)c(=O)c34)C2)cc1 (stereo not given) ? Thanks!
Completion: 95

Prompt: Provide one value: measured inhibition of O=c1c2c3c(sc2ncn1Cc1cccc2ccccc12)CC(NCc1ccccn1)CC3 (stereo not given)
Completion: 81

Record inhibition for all entries; do not skip any.
1. COc1ccc2ccccc2c1Cn1cnc2sc3c(c2c1=O)CCC(NCc1c(C)noc1C)C3 (stereo not given)
2. O=c1c2c3c(sc2ncn1Cc1cccc2ccccc12)CC(NCc1cccc(Cl)c1)CC3 (stereo not given)
3. O=c1c2c3c(sc2ncn1Cc1cccc(-c2ccccc2)c1)CC(NC1CCCc2ccccc21)CC3 (stereo not given)
4. COc1ccccc1Cn1cnc2sc3c(c2c1=O)CCC(NCCc1cccnc1)C3 (stereo not given)

Completion:
1: 87; 2: 60; 3: 22; 4: 38

Consider the following items and state reported inhibition for each.
1. N#Cc1ccc(CNC2CCc3c(sc4ncn(Cc5ccc6ccccc6c5)c(=O)c34)C2)cc1 (stereo not given)
2. COc1ccc2ccccc2c1Cn1cnc2sc3c(c2c1=O)CCC(NCc1ccncc1)C3 (stereo not given)
3. COc1ccc2ccccc2c1Cn1cnc2sc3c(c2c1=O)CCC(NCc1ccccc1F)C3 (stereo not given)
4. COc1ccc2ccccc2c1Cn1cnc2sc3c(c2c1=O)CCC(NCc1ccccc1Cl)C3 (stereo not given)
5. O=c1c2c3c(sc2ncn1Cc1cccc2cccnc12)CC(Nc1ccc(F)cc1)CC3 (stereo not given)

Completion:
1. 67
2. 95
3. 64
4. 40
5. 90

Batch: inhibition for all items listed.
1. O=c1c2c3c(sc2ncn1Cc1ccccc1)CC(NCc1ccco1)CC3 (stereo not given)
2. O=c1c2c3c(sc2ncn1Cc1cccc(-c2ccccc2)c1)CC(NC1CCCC1)CC3 (stereo not given)

Completion:
1: 33; 2: 98

Please go through the list and note inhibition for each compound.
1. O=c1c2c3c(sc2ncn1Cc1ccc2ccccc2c1)CC(NCc1ccccn1)CC3 (stereo not given)
2. COc1ccc(Cn2cnc3sc4c(c3c2=O)CCC(NC2CCOCC2)C4)c2ccccc12 (stereo not given)
3. O=c1c2c3c(sc2ncn1Cc1cccc2cccnc12)CC(NCC1CCOC1)CC3 (stereo not given)
4. COc1ccc(CNCCc2sc3ncn(Cc4c(OC)ccc5ccccc45)c(=O)c3c2C)cc1

Completion:
1: 81; 2: 81; 3: 60; 4: 89

* * *

Molecular target: NAD-dependent protein deacetylase sirtuin-2 (Homo sapiens, UniProt Q8IXJ6)
Sequence (Q8IXJ6 whole entry): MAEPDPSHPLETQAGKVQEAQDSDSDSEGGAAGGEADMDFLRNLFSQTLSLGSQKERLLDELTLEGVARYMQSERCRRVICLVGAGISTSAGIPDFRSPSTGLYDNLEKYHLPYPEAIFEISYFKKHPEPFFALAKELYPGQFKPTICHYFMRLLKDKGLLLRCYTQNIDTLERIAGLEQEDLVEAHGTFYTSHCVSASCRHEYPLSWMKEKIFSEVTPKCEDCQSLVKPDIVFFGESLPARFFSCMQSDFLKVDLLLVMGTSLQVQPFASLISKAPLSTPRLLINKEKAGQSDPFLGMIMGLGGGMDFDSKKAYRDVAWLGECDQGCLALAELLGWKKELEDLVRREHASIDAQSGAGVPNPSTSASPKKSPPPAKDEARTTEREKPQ
Test: Inhibition of recombinant human C-terminal His-tagged SIRT2 (50 to 389 end residues) expressed in Escherichia coli using p53 derived (379 to 382 residues) fluorogenic peptide substrate RHKK(Ac)-AMC preincubated for 10 mins followed by substrate addition in presence of NAD+ by fluorescence assay
assay-readout: IC50 (µM)
Numbers only, in µM.

In the examples that follow, each entry is paired with its recorded IC50.
Prompt: In one line, give reported IC50 of the entry O=c1c2c3c(sc2ncn1Cc1cccc2ccccc12)CC(NCCc1ccncc1)CC3 (stereo unspecified) .
Completion: 5.79

Prompt: For the molecule O=c1c2c3c(sc2ncn1Cc1cccc2cccnc12)CC(NCc1ccco1)CC3 (stereo unspecified) , give its reported IC50.
Completion: 4.16

Prompt: Given O=c1c2c3c(sc2ncn1Cc1cccc2ccccc12)CC(NCc1ccco1)CC3 (stereo unspecified) , respond with its IC50.
Completion: 7.61

Prompt: Supply recorded IC50 for COc1ccc(CNC2CCc3c(sc4ncn(Cc5ccc6ccccc6c5)c(=O)c34)C2)cc1 (stereo unspecified) here.
Completion: 3.82

Prompt: Input COc1ccc(CNC2CCc3c(sc4ncn(Cc5cccc6cccnc56)c(=O)c34)C2)cc1 (stereo unspecified) , output reported IC50.
Completion: 1.83

Prompt: For "COc1ccc2ccccc2c1Cn1cnc2sc(CCNCc3cccnc3)c(C)c2c1=O" , write its IC50.
Completion: 2.15

Prompt: Quote IC50 reported for O=c1c2c3c(sc2ncn1Cc1ccc2ccccc2c1)CC(NCc1cncnc1)CC3 (stereo unspecified) please.
Completion: 5.3

Prompt: Give IC50 for the following molecule: Cc1noc(C)c1CNC1CCc2c(sc3ncn(Cc4cccc5cccnc45)c(=O)c23)C1 (stereo unspecified)
Completion: 6.94

Okay, here is my list. What is IC50 for each of these?
1. COc1cccc(CNC2CCc3c(sc4ncn(Cc5ccccc5OC)c(=O)c34)C2)c1 (stereo unspecified)
2. COc1ccc2ccccc2c1Cn1cnc2sc3c(c2c1=O)CCC(NCC1CCCCC1)C3 (stereo unspecified)
3. COc1ccccc1Cn1cnc2sc3c(c2c1=O)CCC(NCc1ccccc1)C3 (stereo unspecified)
4. COc1ccc2ccccc2c1Cn1cnc2sc3c(c2c1=O)CCC(NCCc1cccnc1)C3 (stereo unspecified)
5. O=c1c2c3c(sc2ncn1Cc1cccc(-c2ccccc2)c1)CC(NCCC1CCCCC1)CC3 (stereo unspecified)
6. O=c1c2c3c(sc2ncn1Cc1cccc2cccnc12)CC(NCc1cccnc1)CC3 (stereo unspecified)
7. COc1ccc2ccccc2c1Cn1cnc2sc3c(c2c1=O)CCC(NCc1ccco1)C3 (stereo unspecified)
8. COc1ccc(CNC2CCc3c(sc4ncn(Cc5c(OC)ccc6ccccc56)c(=O)c34)C2)cn1 (stereo unspecified)

Completion:
1. 13.4
2. 1.65
3. 10.4
4. 10.3
5. 3.74
6. 2.92
7. 5.24
8. 1.9
